Data credit: patent US20250214964A1

ASSAY DETAILS: Cytotoxicity on THP-1 cells
RUN CONDITIONS: human
pEC50: −log10 of the molar value.
ASSAY ENDPOINT: pEC50

Task item: Data request, read-out pEC50, for N=C(Nc1ccc(CCc2ccc(NC(=N)c3ccccn3)cc2)cc1)c1ccccn1
Reply: < 4.30
